- tgt: B-Raf kinase (Homo sapiens, UniProt P15056)
- Construct: GST (N); purchased Sigma
- Sequence (P15056 416-766): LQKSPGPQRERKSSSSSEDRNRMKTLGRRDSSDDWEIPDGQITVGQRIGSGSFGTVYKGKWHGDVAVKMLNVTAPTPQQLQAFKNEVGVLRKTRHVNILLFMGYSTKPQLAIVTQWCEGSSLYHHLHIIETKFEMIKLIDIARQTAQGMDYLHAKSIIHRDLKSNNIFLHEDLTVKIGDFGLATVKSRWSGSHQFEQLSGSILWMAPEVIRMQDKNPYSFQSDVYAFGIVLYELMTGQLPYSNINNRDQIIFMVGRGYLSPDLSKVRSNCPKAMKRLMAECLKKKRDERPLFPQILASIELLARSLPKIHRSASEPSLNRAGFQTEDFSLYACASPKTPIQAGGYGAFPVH
- experiment description: Biochemical assay for B-Raf.1 (coupled pyruvate kinase/lactate dehydrogenase)
- measurement context: read-out: BRAF.1 IC50
pIC50: −log10 of the molar value.
recorded endpoint: pIC50

// worked examples, pIC50 included
compound	pIC50
Cc1ccc(NC(=O)NC23CC4CC(CC(C4)C2)C3)cc1-c1cc(OCCO)nc(N2CCOCC2)c1 [Example 14]	< 6.00
Cc1cc(F)c(NC(=O)NCCC(C)(C)C)cc1-c1cc(OCCO)nc(C2CCOCC2)c1 [Example 9]	≥ 7.00
COC1(CCNC(=O)Nc2cnc(C)c(-c3ccnc(-c4ccnc(NC(=O)C5CC5)c4)n3)c2)CC1 [Example 137]	6.30 to 7.00
COC(=O)Nc1cc(-c2cc(-c3cc(NC(=O)NCCC(C)(C)F)cnc3C)cc(OCCO)n2)ccn1 [Example 165]	≥ 7.00
CNC(=O)c1cc(-c2cnnc(-c3cc(NC(=O)N4CC[C@H](OC)C4)ccc3C)c2)ccn1 [Example 177]	< 6.00

Req: Endpoint output: pIC50 of Cc1ncc(NC(=O)NCCC(C)(C)C)cc1-c1cc(N2CCOCC2)c(=O)n(C)n1 [Example 17] . Value?
Resp: < 6.00

Req: Endpoint output: pIC50 of Cc1cc(F)c(NC(=O)NC2CC(C)(C)C2)cc1-c1cc(OCCO)nc(-c2ccnc(NC(=O)C3CC3)c2)c1 [Example 80] . Value?
Resp: ≥ 7.00

Req: Endpoint output: pIC50 of Cc1ccc(NC(=O)NCCC(C)(C)C)cc1-c1ccnc(N2CCOCC2)c1 [Example 18] . Value?
Resp: ≥ 7.00

Req: Endpoint output: pIC50 of Cc1cc(F)c(NC(=O)NCCC(C)(C)F)cc1-c1nccc(-c2ccnc(NC(=O)C3CC3)c2)n1 [Example 114] . Value?
Resp: ≥ 7.00

Req: Endpoint output: pIC50 of Cc1cc(F)c(NC(=O)NCCC2(C(F)(F)F)CC2)cc1-c1cc(OCCO)nc(C2CCOCC2)c1 [Example 24] . Value?
Resp: ≥ 7.00

Req: Endpoint output: pIC50 of CNC(=O)c1cc(-c2cnnc(-c3cc(NC(=O)NCCC(C)(C)OC)cnc3C)c2)ccn1 [Example 154] . Value?
Resp: < 6.00

Req: Endpoint output: pIC50 of Cc1cc(F)c(NC(=O)NCCC2(C(F)(F)F)CC2)cc1-c1cc(C2CCOCC2)nc(N2CCN(C)CC2)c1 [Example 12] . Value?
Resp: 6.00 to 6.30

Req: Endpoint output: pIC50 of COC[C@H]1CCN(C(=O)Nc2cc(-c3cc(-c4ccnc(NC(=O)OC)c4)cnn3)c(C)cc2F)C1 [Example 148] . Value?
Resp: 6.00 to 6.30

Req: Endpoint output: pIC50 of CC(=O)Nc1cc(-c2cc(-c3cc(NC(=O)NC4CC(C)(C)C4)c(F)cc3C)cc(OCCO)n2)ccn1 [Example 47] . Value?
Resp: ≥ 7.00

Req: Endpoint output: pIC50 of Cc1cc(F)c(NC(=O)NCCC(C)(C)F)cc1-c1cc(OCCO)nc(-c2ccncc2)c1 [Example 25] . Value?
Resp: 6.30 to 7.00

----------
- tgt: A-Raf kinase (Homo sapiens, UniProt P10398, Y301D/Y302D)
- Construct: purchased Sigma
- Sequence (P10398 with tags, fused parts or gaps Y301D/Y302D): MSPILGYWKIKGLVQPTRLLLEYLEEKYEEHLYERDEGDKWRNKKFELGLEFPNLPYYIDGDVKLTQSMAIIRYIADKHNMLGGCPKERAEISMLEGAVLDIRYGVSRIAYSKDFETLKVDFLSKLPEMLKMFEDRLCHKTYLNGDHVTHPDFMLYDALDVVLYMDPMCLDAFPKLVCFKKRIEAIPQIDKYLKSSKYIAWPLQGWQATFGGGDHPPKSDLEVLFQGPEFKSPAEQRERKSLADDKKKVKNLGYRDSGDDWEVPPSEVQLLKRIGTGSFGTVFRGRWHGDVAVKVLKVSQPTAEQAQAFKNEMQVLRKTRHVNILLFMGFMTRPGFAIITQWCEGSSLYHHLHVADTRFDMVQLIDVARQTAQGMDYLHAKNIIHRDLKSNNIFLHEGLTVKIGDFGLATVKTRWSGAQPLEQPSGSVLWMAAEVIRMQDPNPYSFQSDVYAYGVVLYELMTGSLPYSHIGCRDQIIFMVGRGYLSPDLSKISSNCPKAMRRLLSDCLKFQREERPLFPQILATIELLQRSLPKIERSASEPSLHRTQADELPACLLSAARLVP
- experiment description: Biochemical assay for A-Raf.1 (coupled pyruvate kinase/lactate dehydrogenase)
- measurement context: read-out: ARAF.1 IC50
- Procedure: Biochemical assay for A-Raf.1 Activity of A-Raf kinase (SEQ. ID NO. 1) was determined spectroscopically using a coupled pyruvate kinase/lactate dehydrogenase assay that continuously monitors the ATP hydrolysis-dependent oxidation of NADH (e.g., Schindler et al., Science, 2000, 289, 1938-1942). […] Inhibition of A-Raf was measured by adding serial diluted test compound (final assay concentration of 1% DMSO). […] The reaction rate was calculated using the 4 to 5 h time frame. […]
pIC50: −log10 of the molar value.
recorded endpoint: pIC50

Req: Endpoint output: pIC50 of COC(=O)Nc1cc(-c2nc(OCCO)cc(-c3cc(NC(=O)NCCC(C)(C)F)c(F)cc3C)n2)ccn1 . Value?
Resp: < 6.00

Req: Endpoint output: pIC50 of Cc1cc(F)c(NC(=O)NCCC2(C)COC2)cc1-c1cc(OCCO)nc(-c2ccnc3[nH]ncc23)c1 . Value?
Resp: < 6.00

Req: Endpoint output: pIC50 of CNC(=O)c1cc(-c2cnnc(-c3cc(NC(=O)N4CCC(CC(F)(F)F)C4)cnc3C)c2)ccn1 (stereo not drawn) . Value?
Resp: < 6.00

Req: Endpoint output: pIC50 of Cc1ccc(NC(=O)NCCC2(C)CC2)cc1-c1cc(-c2cnn(C)c2)nc(N2CCOCC2)c1 . Value?
Resp: < 6.00

Req: Endpoint output: pIC50 of Cc1cc(F)c(NC(=O)NCCC2(C(F)(F)F)CC2)cc1-c1cc(N2CCOCC2)nc(N2CC(N(C)C)C2)n1 . Value?
Resp: < 6.00

Req: Endpoint output: pIC50 of COC(C)(C)CCNC(=O)Nc1cc(-c2cccc(-c3ccnc(NC(C)=O)c3)c2)c(C)cc1F . Value?
Resp: 6.30 to 7.00

Req: Endpoint output: pIC50 of Cc1ccc(NC(=O)N2CCC3(CC3)C2)cc1-c1cncc(-c2cc(NC(=O)C3CC3)ncn2)c1 . Value?
Resp: < 6.00

Req: Endpoint output: pIC50 of Cc1cc(F)c(NC(=O)NCCC2(C)CC2)cc1-c1cc(OC2CCN(C)CC2)nc(-c2ccncc2)c1 . Value?
Resp: < 6.00

Req: Endpoint output: pIC50 of Cc1ccc(NC(=O)Nc2cccc(C(F)(F)F)c2)cc1-c1cc(OCCO)nc(N2CCOCC2)c1 . Value?
Resp: 6.30 to 7.00

----------
The following compounds are shown together with reported pIC50 values.
- tgt: B-Raf kinase (Homo sapiens)
- Construct: GST (N); purchased Sigma
- experiment description: Biochemical assay for B-Raf.2 (coupled pyruvate kinase/lactate dehydrogenase)
- measurement context: read-out: BRAF.2 IC50
pIC50: −log10 of the molar value.

smiles code	pIC50
CNC(=O)c1cc(-c2cc(-c3cc(NC(=O)N4CC[C@H](C(C)C)C4)ccc3C)ccn2)ccn1	6.30 to 7.00

Req: Endpoint output: pIC50 of CNC(=O)c1cc(-c2cncc(-c3cc(NC(=O)N4CC[C@H](C(F)(F)F)C4)ccc3C)c2)ccn1 . Value?
Resp: 6.30 to 7.00

Req: Endpoint output: pIC50 of CNC(=O)c1cc(-c2cncc(-c3cc(NC(=O)N4CC[C@H](C(F)(F)F)C4)ccc3C)c2)ncn1 . Value?
Resp: 6.30 to 7.00

Req: Endpoint output: pIC50 of COC(=O)Nc1cc(-c2cncc(-c3cc(NC(=O)N4CC[C@H](C(F)(F)F)C4)ccc3C)c2)ncn1 . Value?
Resp: ≥ 7.00

----------
- tgt: C-Raf kinase (Homo sapiens, UniProt P04049, Y340D/Y341D)
- Construct: Y340D,; GST (N); purchased Sigma
- Sequence (P04049 307-648 Y340D/Y341D): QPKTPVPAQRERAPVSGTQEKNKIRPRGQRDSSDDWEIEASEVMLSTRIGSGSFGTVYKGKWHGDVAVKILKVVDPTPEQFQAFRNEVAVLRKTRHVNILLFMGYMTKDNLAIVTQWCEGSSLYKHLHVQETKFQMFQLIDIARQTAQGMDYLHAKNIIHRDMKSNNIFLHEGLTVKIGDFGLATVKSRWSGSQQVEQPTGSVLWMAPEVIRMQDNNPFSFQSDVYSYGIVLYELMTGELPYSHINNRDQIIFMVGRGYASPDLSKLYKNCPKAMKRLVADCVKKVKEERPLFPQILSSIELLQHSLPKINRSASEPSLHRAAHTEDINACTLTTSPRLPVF
- experiment description: Biochemical assay for C-Raf.1 (coupled pyruvate kinase/lactate dehydrogenase)
- measurement context: read-out: CRAF.1 IC50
The following compounds are shown together with reported IC50 values.

// worked examples, IC50 included
smiles code	tgt	IC50
Cc1cc(F)c(NC(=O)NC[C@H]2CCO2)cc1-c1cc(OCCO)nc(-c2ccnc3[nH]ncc23)c1	C-Raf kinase (Homo sapiens, UniProt P04049, Y340D/Y341D)	> 1000 nM
COC(=O)Nc1cc(-c2cc(-c3cc(NC(=O)N4CC[C@H](C(F)(F)F)C4)ccc3C)nc(C)n2)ccn1	C-Raf kinase (Homo sapiens, UniProt P04049, Y340D/Y341D)	100 to 500 nM
Cc1ncc(NC(=O)NCCC(C)(C)C)cc1-c1cc(N2CCOCC2)nc(N2CCOCC2)c1	C-Raf kinase (Homo sapiens, UniProt P04049, Y340D/Y341D)	100 to 500 nM
COC1(CCNC(=O)Nc2cc(-c3cc(-c4cnn(C)c4)nc(N4CCOCC4)c3)c(C)cc2F)CC1	C-Raf kinase (Homo sapiens, UniProt P04049, Y340D/Y341D)	100 to 500 nM
Cc1cc(F)c(NC(=O)NCCC2(C(F)(F)F)CC2)cc1-c1cc(C2CCOCC2)nc(N2CCN(C)CC2)c1	C-Raf kinase (Homo sapiens, UniProt P04049, Y340D/Y341D)	100 to 500 nM

Req: Form: Entry = Cc1ncc(NC(=O)NCCC2(C)CC2)cc1-c1cc(OCCO)nc(-c2ccnc(NC(=O)C3CC3)c2)n1 | System = C-Raf kinase (Homo sapiens, UniProt P04049, Y340D/Y341D) | IC50 = ____
Resp: ≤ 100 nM

Req: Form: Entry = CC(=O)Nc1cc(-c2cc(-c3cc(NC(=O)NC4CCC(F)(F)CC4)c(F)cc3C)cc(OCCO)n2)ccn1 | System = C-Raf kinase (Homo sapiens, UniProt P04049, Y340D/Y341D) | IC50 = ____
Resp: ≤ 100 nM

Req: Form: Entry = Cc1ccc(NC(=O)Nc2cnn(CC(F)(F)F)c2)cc1-c1cc(OCCO)nc(N2CCOCC2)c1 | System = C-Raf kinase (Homo sapiens, UniProt P04049, Y340D/Y341D) | IC50 = ____
Resp: 100 to 500 nM

Req: Form: Entry = COC[C@@H]1CCN(C(=O)Nc2cnc(C)c(-c3ccnc(-c4ccnc(NC(=O)OC)c4)c3)c2)C1 | System = C-Raf kinase (Homo sapiens, UniProt P04049, Y340D/Y341D) | IC50 = ____
Resp: 100 to 500 nM

Req: Form: Entry = CNC(=O)c1cc(-c2cccc(-c3cc(NC(=O)NCCC(C)(C)OC)c(F)cc3C)c2)ccn1 | System = C-Raf kinase (Homo sapiens, UniProt P04049, Y340D/Y341D) | IC50 = ____
Resp: ≤ 100 nM

Req: Form: Entry = COC(=O)Nc1cc(-c2cc(-c3cc(NC(=O)NCCC(C)(C)OC)c(F)cc3F)ccn2)ccn1 | System = C-Raf kinase (Homo sapiens, UniProt P04049, Y340D/Y341D) | IC50 = ____
Resp: 100 to 500 nM

Req: Form: Entry = COC(=O)Nc1cc(-c2cc(-c3cc(NC(=O)NCCC4(C)CC4)c(F)cc3F)cc(OCCO)n2)ccn1 | System = C-Raf kinase (Homo sapiens, UniProt P04049, Y340D/Y341D) | IC50 = ____
Resp: ≤ 100 nM

Req: Form: Entry = COC(=O)Nc1cc(-c2cc(-c3cc(NC(=O)NCCC(C)C)c(F)cc3C)cc(OCCO)n2)ccn1 | System = C-Raf kinase (Homo sapiens, UniProt P04049, Y340D/Y341D) | IC50 = ____
Resp: ≤ 100 nM

Req: Form: Entry = COC(=O)Nc1cc(-c2cccc(-c3cc(NC(=O)NCCC(C)(C)OC)c(F)cc3C)c2)ccn1 | System = C-Raf kinase (Homo sapiens, UniProt P04049, Y340D/Y341D) | IC50 = ____
Resp: ≤ 100 nM

Req: Form: Entry = Cc1ccc(NC(=O)NCCC(C)(C)C)cc1-c1cc(N2CCOCC2)nc(N2CC(C)(O)C2)n1 | System = C-Raf kinase (Homo sapiens, UniProt P04049, Y340D/Y341D) | IC50 = ____
Resp: ≤ 100 nM
